# TARGET_OR_SYSTEM: Acetylcholinesterase (Electrophorus electricus, UniProt O42275)
# Sequence (O42275 whole entry): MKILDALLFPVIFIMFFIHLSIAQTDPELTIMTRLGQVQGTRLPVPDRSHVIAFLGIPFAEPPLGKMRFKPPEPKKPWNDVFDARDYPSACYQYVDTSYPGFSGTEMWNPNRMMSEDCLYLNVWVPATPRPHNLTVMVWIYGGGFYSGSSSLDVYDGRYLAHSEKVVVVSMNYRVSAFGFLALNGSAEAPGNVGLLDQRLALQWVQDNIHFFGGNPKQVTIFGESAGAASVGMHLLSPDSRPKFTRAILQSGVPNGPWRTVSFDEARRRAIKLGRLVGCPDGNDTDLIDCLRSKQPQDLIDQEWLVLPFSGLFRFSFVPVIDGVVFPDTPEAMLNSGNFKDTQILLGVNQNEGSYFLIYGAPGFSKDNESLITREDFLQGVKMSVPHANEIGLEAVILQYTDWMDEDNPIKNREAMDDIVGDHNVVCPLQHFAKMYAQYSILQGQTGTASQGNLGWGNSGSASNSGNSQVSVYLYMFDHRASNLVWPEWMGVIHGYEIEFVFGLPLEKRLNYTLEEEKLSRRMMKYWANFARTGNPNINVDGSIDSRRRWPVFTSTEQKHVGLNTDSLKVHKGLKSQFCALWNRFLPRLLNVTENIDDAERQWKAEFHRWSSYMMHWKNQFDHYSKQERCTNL
Please respond with reported IC50 for every item in the list.
Use nM as the unit, but write only the number.

Prompt line: Need IC50, item CCn1ncc2c(NC3CCCCC3)c(C(=O)NCCCCNc3c4c(nc5cc(Cl)ccc35)CCCC4)cnc21
Response line: 335

Prompt line: Need IC50, item CCn1ncc2c(NC3CCCCC3)c(C(=O)NCCCCCCNc3c4c(nc5cc(Cl)ccc35)CCCC4)cnc21
Response line: 125

Prompt line: Need IC50, item CCn1ncc2c(NC3CCCCC3)c(C(=O)NCCNc3c4c(nc5cc(Cl)ccc35)CCCC4)cnc21
Response line: 412

Prompt line: Need IC50, item CCn1ncc2c(NC3CCCCC3)c(C(=O)NCCCCCNc3c4c(nc5ccccc35)CCCC4)cnc21
Response line: 358

Prompt line: Need IC50, item CCn1ncc2c(NC3CCCCC3)c(C(=O)NCCCCCCCNc3c4c(nc5ccccc35)CCCC4)cnc21
Response line: 316

Prompt line: Need IC50, item CCn1ncc2c(NC3CCCCC3)c(C(=O)NCCCCCCCCNc3c4c(nc5ccccc35)CCCC4)cnc21
Response line: 392

Prompt line: Need IC50, item CCn1ncc2c(NC3CCCCC3)c(C(=O)NCCCCCCCCNc3c4c(nc5cc(Cl)ccc35)CCCC4)cnc21
Response line: 812

Prompt line: Need IC50, item CCn1ncc2c(NC3CCCCC3)c(C(=O)NCCCCCCNc3c4c(nc5ccccc35)CCCC4)cnc21
Response line: 149

Prompt line: Need IC50, item CCn1ncc2c(NC3CCCCC3)c(C(=O)NCCCCNc3c4c(nc5ccccc35)CCCC4)cnc21
Response line: 333

Prompt line: Need IC50, item CCn1ncc2c(NC3CCCCC3)c(C(=O)NCCNc3c4c(nc5ccccc35)CCCC4)cnc21
Response line: 243

Prompt line: Need IC50, item CCn1ncc2c(NC3CCCCC3)c(C(=O)NCCCCCNc3c4c(nc5ccc(Cl)cc35)CCCC4)cnc21
Response line: 306

Prompt line: Need IC50, item CCn1ncc2c(NC3CCCCC3)c(C(=O)NCCCCCCCNc3c4c(nc5ccc(Cl)cc35)CCCC4)cnc21
Response line: 391

---

ENDPOINT_LABEL: pIC50
Remember, pIC50 is on a log scale: it is -log10 of the molar concentration.

Prompt line: Hello, I am looking for reported pIC50 with 3',5'-cyclic-AMP phosphodiesterase 4D (Homo sapiens, UniProt Q08499) for CCn1ncc2c(NC3CCCCC3)c(C(=O)NCCCCCCCNc3c4c(nc5ccccc35)CCCC4)cnc21 . Could you help?
Response line: 5.97

Prompt line: Hello, I am looking for reported pIC50 with 3',5'-cyclic-AMP phosphodiesterase 4D (Homo sapiens, UniProt Q08499) for CCn1ncc2c(NC3CCCCC3)c(C(=O)NCCCCCCCNc3c4c(nc5ccc(Cl)cc35)CCCC4)cnc21 . Could you help?
Response line: 6.03

Prompt line: Hello, I am looking for reported pIC50 with 3',5'-cyclic-AMP phosphodiesterase 4D (Homo sapiens, UniProt Q08499) for CCn1ncc2c(NC3CCCCC3)c(C(=O)NCCCCCCNc3c4c(nc5cc(Cl)ccc35)CCCC4)cnc21 . Could you help?
Response line: 6.57

Prompt line: Hello, I am looking for reported pIC50 with 3',5'-cyclic-AMP phosphodiesterase 4D (Homo sapiens, UniProt Q08499) for CCn1ncc2c(NC3CCCCC3)c(C(=O)NCCCCCCNc3c4c(nc5ccccc35)CCCC4)cnc21 . Could you help?
Response line: 6.30

Prompt line: Hello, I am looking for reported pIC50 with 3',5'-cyclic-AMP phosphodiesterase 4D (Homo sapiens, UniProt Q08499) for CCn1ncc2c(NC3CCCCC3)c(C(=O)NCCCCNc3c4c(nc5ccccc35)CCCC4)cnc21 . Could you help?
Response line: 6.97

Prompt line: Hello, I am looking for reported pIC50 with 3',5'-cyclic-AMP phosphodiesterase 4D (Homo sapiens, UniProt Q08499) for CCn1ncc2c(NC3CCCCC3)c(C(=O)NCCCCCNc3c4c(nc5ccccc35)CCCC4)cnc21 . Could you help?
Response line: 6.32

Prompt line: Hello, I am looking for reported pIC50 with 3',5'-cyclic-AMP phosphodiesterase 4D (Homo sapiens, UniProt Q08499) for CCn1ncc2c(NC3CCCCC3)c(C(=O)NCCCCCCCCNc3c4c(nc5cc(Cl)ccc35)CCCC4)cnc21 . Could you help?
Response line: 5.97

Prompt line: Hello, I am looking for reported pIC50 with 3',5'-cyclic-AMP phosphodiesterase 4D (Homo sapiens, UniProt Q08499) for CCn1ncc2c(NC3CCCCC3)c(C(=O)NCCNc3c4c(nc5cc(Cl)ccc35)CCCC4)cnc21 . Could you help?
Response line: 7.60

Prompt line: Hello, I am looking for reported pIC50 with 3',5'-cyclic-AMP phosphodiesterase 4D (Homo sapiens, UniProt Q08499) for CCn1ncc2c(NC3CCCCC3)c(C(=O)NCCCCNc3c4c(nc5cc(Cl)ccc35)CCCC4)cnc21 . Could you help?
Response line: 7.06

Prompt line: Hello, I am looking for reported pIC50 with 3',5'-cyclic-AMP phosphodiesterase 4D (Homo sapiens, UniProt Q08499) for CCn1ncc2c(NC3CCCCC3)c(C(=O)NCCCCCCCCNc3c4c(nc5ccccc35)CCCC4)cnc21 . Could you help?
Response line: 5.88

Prompt line: Hello, I am looking for reported pIC50 with 3',5'-cyclic-AMP phosphodiesterase 4D (Homo sapiens, UniProt Q08499) for CCn1ncc2c(NC3CCCCC3)c(C(=O)NCCNc3c4c(nc5ccccc35)CCCC4)cnc21 . Could you help?
Response line: 7.39

Prompt line: Hello, I am looking for reported pIC50 with 3',5'-cyclic-AMP phosphodiesterase 4D (Homo sapiens, UniProt Q08499) for CCn1ncc2c(NC3CCCCC3)c(C(=O)NCCCCCNc3c4c(nc5ccc(Cl)cc35)CCCC4)cnc21 . Could you help?
Response line: 6.51
